- systemTested: UniProt P08913
- Sequence (P08913 1-465): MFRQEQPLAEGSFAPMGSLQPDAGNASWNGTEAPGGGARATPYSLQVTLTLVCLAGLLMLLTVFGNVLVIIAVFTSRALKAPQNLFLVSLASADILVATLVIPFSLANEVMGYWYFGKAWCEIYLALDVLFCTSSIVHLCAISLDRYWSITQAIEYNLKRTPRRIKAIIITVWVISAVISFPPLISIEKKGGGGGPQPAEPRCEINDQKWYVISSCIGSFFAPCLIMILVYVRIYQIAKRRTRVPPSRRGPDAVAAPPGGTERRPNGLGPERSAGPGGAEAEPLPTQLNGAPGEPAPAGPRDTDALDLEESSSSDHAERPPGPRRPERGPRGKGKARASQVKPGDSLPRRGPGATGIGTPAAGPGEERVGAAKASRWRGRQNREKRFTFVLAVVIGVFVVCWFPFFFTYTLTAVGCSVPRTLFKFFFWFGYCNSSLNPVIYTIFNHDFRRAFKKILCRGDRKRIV
Where a name gives a salt, the structure may show the parent alone.
quantityName: Ki (nM)
The figure you give is taken to be in nM; do not add the unit.

compound: COc1ccc2c(c1)CN(CC1=NCCN1)C2 [Example 6, dihydrochloride]
quantityName: Ki
measured: 89
//
compound: c1ccc2c(c1)CN(CC1=NCCN1)C2 [Example 1]
quantityName: Ki
measured: 5
//
compound: c1ccc2c(c1)CCN(CC1=NCCN1)C2 [Example 4]
quantityName: Ki
measured: 20

// next entry
Query: Reported Ki for Clc1ccc2c(c1)CN(CC1=NCCN1)C2 [Example 3] : what is it?
Response: 13

Source of measurements: patent US4863946A
